The values you see were collected from paper PMC6882465.

target: hGSK-3β (Homo sapiens); assay: hGSK-3β inhibition; assay type: biochemical; settings: Table 2
Sequence (P49841 whole entry): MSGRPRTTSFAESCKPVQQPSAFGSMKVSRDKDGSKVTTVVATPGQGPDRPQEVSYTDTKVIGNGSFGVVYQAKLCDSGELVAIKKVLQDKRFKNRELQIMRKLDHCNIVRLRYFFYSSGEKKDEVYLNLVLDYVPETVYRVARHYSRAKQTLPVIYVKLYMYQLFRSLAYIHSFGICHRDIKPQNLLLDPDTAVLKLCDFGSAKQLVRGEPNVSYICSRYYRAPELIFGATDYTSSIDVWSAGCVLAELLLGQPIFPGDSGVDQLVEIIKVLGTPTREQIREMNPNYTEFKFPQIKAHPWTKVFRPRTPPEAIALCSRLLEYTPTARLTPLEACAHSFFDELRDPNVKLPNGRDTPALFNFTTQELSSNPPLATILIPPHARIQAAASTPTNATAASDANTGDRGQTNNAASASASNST
metric name: IC50 (nM)
Report as a plain number; the unit nM is understood.

Solved cases (3 shown):
>>> print(df.to_string())
                                 mol_smiles  endpoint_value
0  Cc1ccc(S(C)(=O)=O)cc1Nc1nccc(-c2sc(N)nc2-c2ccccc2)n1             810
1  N#Cc1cc(-c2ccnc(Nc3cccc(CN4CCOCC4)c3)n2)ccc1NCCN            1320
2  CN(C)S(=O)(=O)c1ccc(-c2cnc(N)c(-c3nc4ccc(F)cc4[nH]3)c2)cc1            1230

# lookup: IC50 of COc1ccc(Nc2nccc(N(C)c3n[nH]c4c(F)cccc34)n2)cc1S(C)(=O)=O
1400

----------
Documented % inhibition @ 10µM (initial screening on LdGSK3) across a set of compounds
molecular target: LdGSK-3 (Leishmania donovani, UniProt A6N857); assay: Inhibition of LdGSK-3 with Kinase Glo; format: biochemical; details: Table S2; 10 µM
Sequence (A6N857 entry or part of it): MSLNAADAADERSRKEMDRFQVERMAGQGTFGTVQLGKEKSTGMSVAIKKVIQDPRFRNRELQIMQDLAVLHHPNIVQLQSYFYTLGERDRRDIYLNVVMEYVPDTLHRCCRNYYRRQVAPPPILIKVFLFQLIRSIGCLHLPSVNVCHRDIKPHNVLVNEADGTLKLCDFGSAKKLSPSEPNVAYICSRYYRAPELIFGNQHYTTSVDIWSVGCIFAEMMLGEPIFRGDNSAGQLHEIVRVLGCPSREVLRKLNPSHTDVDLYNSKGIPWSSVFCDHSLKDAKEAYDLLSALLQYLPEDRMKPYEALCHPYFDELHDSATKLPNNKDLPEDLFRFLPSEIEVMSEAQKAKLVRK
Report as a plain number; the unit % is understood.

Solved cases (8 shown):
>>> df
                                   compound                              study_system  endpoint_value
0     Nc1cc(-c2ccc3ncnc(N4CCOCC4)c3c2)cnc1N  LdGSK-3 (Leishmania donovani, UniProt A6N857)            0.55
1  COc1ccc2ncc(F)c(CCN3CC[C@@H](NC(=O)c4cc5c(s4)CCC5)[C@@H](O)C3)c2n1.Cl  LdGSK-3 (Leishmania donovani, UniProt A6N857)            8.60
2  O=C(Cc1ccc2c(c1)CCC2)Nc1n[nH]c(-c2ccccn2)n1  LdGSK-3 (Leishmania donovani, UniProt A6N857)           12.15
3  COCCn1c(-c2ccccc2)cnc1NCc1ccccc1OC.O=C(O)C(=O)O  LdGSK-3 (Leishmania donovani, UniProt A6N857)            6.00
4  Cc1ccc(Nc2nc(C3CCCN3Cc3ccn[nH]3)cs2)nc1 (stereo not drawn)  LdGSK-3 (Leishmania donovani, UniProt A6N857)           -0.35
5  Cc1nc(-c2ccc3c(c2)OCO3)sc1C(=O)NCc1ccc2c(c1)OCO2  LdGSK-3 (Leishmania donovani, UniProt A6N857)           14.00
6  O=C(c1cccc(Nc2ncc(-c3ccc4c(c3)OCO4)cn2)c1)N1CCSC1  LdGSK-3 (Leishmania donovani, UniProt A6N857)           18.20
7  COc1ccc(-c2cnc(NC(=O)c3cc(-c4ccccn4)n[nH]3)n2C)cc1  LdGSK-3 (Leishmania donovani, UniProt A6N857)            6.40

Now, please, on to the next compound.
What value of % inhibition @ 10µM (initial screening on LdGSK3) on LdGSK-3 (Leishmania donovani, UniProt A6N857) does O=S(=O)(c1cccc(CSc2nnc(-c3ccc4c(c3)OCO4)o2)c1)N1CCOCC1 have?
61.89

----------
biological target: LdGSK-3 (Leishmania donovani, UniProt A6N857); assay: Inhibition of LdGSK-3 with Kinase Glo; assay type: biochemical; details: Table S2; 10 µM
# if value of % inhibition @ 10µM (initial screening on LdGSK3) reaches 10%, tag T; if it stays below, tag F

Could you please find out whether CCc1cc(C(=O)Nc2nccn2-c2ccccc2)cs1 [Compound 93] has % inhibition @ 10µM (initial screening on LdGSK3) that meets 10% or exceeds it?
F

Could you please find out whether COc1cccc(Nc2cc(C)nc(-c3ccccn3)n2)c1 [Compound 32] has % inhibition @ 10µM (initial screening on LdGSK3) that meets 10% or exceeds it?
F

Could you please find out whether CCc1ccc2nc(NC(=O)c3cc(N4CCOCC4)ccn3)sc2c1 [Compound 118] has % inhibition @ 10µM (initial screening on LdGSK3) that meets 10% or exceeds it?
T
